- TESTED_SYSTEM: S. pyogenes SKKanGAS, kanamycin survival, BacTiterGlo, 6 h
- ASSAY_COMMENT: S. pyogenes SKKanGAS kanamycin growth inhibitors – SKKanGAS strain, luminescence, dose confirmation, streptokinase promoter inhibitor project, dose response (AID 1902);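 further: lower survival reflects blocked streptokinase promoter driving kanamycin resistance gene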
Active and inactive are the calls of the source.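 How the source made its calls: active means EC50 no more than a set limit of log units above the highest dose; inactive means the rest.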
Labels: 1 (yes) for active, 0 (no) for inactive

>  <COMPOUND>
C/C(=N\NS(=O)(=O)c1ccc(C)cc1)c1ccc(C)o1

>  <DISCRETE_LABEL>
0 (no)

$$$$
>  <COMPOUND>
Brc1ccc(-c2cn3c(n2)CCc2ccc4cccnc4c2-3)cc1

>  <DISCRETE_LABEL>
1 (yes)

$$$$
>  <COMPOUND>
O=C(Nc1cccc(NC(=O)c2ccccc2Cl)c1)c1ccc([N+](=O)[O-])o1

>  <DISCRETE_LABEL>
1 (yes)

$$$$
>  <COMPOUND>
CC(C)c1ccccc1OCC(O)CN(CC(O)COc1cccc2ccccc12)C(C)C (stereo not given)

>  <DISCRETE_LABEL>
1 (yes)

$$$$
>  <COMPOUND>
N#CC1=C(c2ccccc2)/C(=C/c2ccccc2)OC1=O

>  <DISCRETE_LABEL>
1 (yes)

$$$$
>  <COMPOUND>
O=C(NNC(=S)NC(=O)c1ccccc1)c1ccc(O)cc1

>  <DISCRETE_LABEL>
1 (yes)

$$$$
>  <COMPOUND>
Cc1ccc(C)c2sc(N3CCN(C(=O)c4ccc([N+](=O)[O-])o4)CC3)nc12

>  <DISCRETE_LABEL>
1 (yes)

$$$$
>  <COMPOUND>
COc1cc([N+](=O)[O-])cc(/C=N/NC(=O)C(C)Nc2cccc(C)c2)c1O (stereo not given)

>  <DISCRETE_LABEL>
1 (yes)

$$$$
>  <COMPOUND>
COc1ccc(Cn2c(-c3ccco3)nc3oc4cc(OC)ccc4c(=O)c3c2=O)cc1

>  <DISCRETE_LABEL>
1 (yes)

$$$$
>  <COMPOUND>
CCCCCn1c(CN2CCN(c3cc(Cl)ccc3C)CC2)nc2c1c(=O)[nH]c(=O)n2C

>  <DISCRETE_LABEL>
1 (yes)

$$$$

====

- TESTED_SYSTEM: S. pyogenes SKKanGAS, kanamycin survival, BacTiterGlo, 6 h
- ASSAY_COMMENT: S. pyogenes SKKanGAS kanamycin growth inhibitors – SKKanGAS strain, luminescence, dose confirmation, streptokinase promoter inhibitor project, dose response (AID 1902);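 further: lower survival reflects blocked streptokinase promoter driving kanamycin resistance gene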
Activity calls are given as the source filed them.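 The calls were made as follows: active = EC50 no more than a set limit of log units above the highest dose; inactive = the rest.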

>  <COMPOUND>
O=C(/C=C/c1ccco1)Oc1cc(Br)cc(/C=N/NC(=O)c2ccccc2O)c1

>  <TESTED_SYSTEM>
S. pyogenes SKKanGAS, kanamycin survival, BacTiterGlo, 6 h

>  <EC50>
1.11 µM

$$$$
>  <COMPOUND>
COc1ccc2nc(Nc3nc4cc5c(cc4s3)OCO5)sc2c1

>  <TESTED_SYSTEM>
S. pyogenes SKKanGAS, kanamycin survival, BacTiterGlo, 6 h

>  <EC50>
1.02 µM

$$$$
>  <COMPOUND>
COc1ccccc1NC(=O)C(=O)NNC(=O)COc1ccc2ccccc2c1

>  <TESTED_SYSTEM>
S. pyogenes SKKanGAS, kanamycin survival, BacTiterGlo, 6 h

>  <EC50>
2.2 µM

$$$$
>  <COMPOUND>
O=C(NNC(=S)NC(=O)c1cn(-c2ccccc2)nc1-c1ccccc1)c1ccncc1

>  <TESTED_SYSTEM>
S. pyogenes SKKanGAS, kanamycin survival, BacTiterGlo, 6 h

>  <EC50>
0.151 µM

$$$$
>  <COMPOUND>
CC(C(=O)NC1C(=O)N2C(C(=O)O)=C(CSc3nnnn3C)CSC12)n1cc(Br)cn1 (stereo unspecified)

>  <TESTED_SYSTEM>
S. pyogenes SKKanGAS, kanamycin survival, BacTiterGlo, 6 h

>  <EC50>
< 0.06 µM

$$$$
>  <COMPOUND>
O=C(N/N=C/c1sc2ccccc2c1O)c1ccccc1

>  <TESTED_SYSTEM>
S. pyogenes SKKanGAS, kanamycin survival, BacTiterGlo, 6 h

>  <EC50>
0.929 µM

$$$$
>  <COMPOUND>
COc1cc(C)ccc1NC(=O)Cc1csc(NC(=O)Nc2ccccc2OC)n1

>  <TESTED_SYSTEM>
S. pyogenes SKKanGAS, kanamycin survival, BacTiterGlo, 6 h

>  <EC50>
15.7 µM

$$$$
>  <COMPOUND>
O=S(=O)(Nc1ccc(O)c(Sc2nc3ccccc3s2)c1)c1cccc2ccccc12

>  <TESTED_SYSTEM>
S. pyogenes SKKanGAS, kanamycin survival, BacTiterGlo, 6 h

>  <EC50>
3.09 µM

$$$$
>  <COMPOUND>
COc1ccc(-c2[nH]ncc2N=Nc2cc(C)cc(C)c2)cc1

>  <TESTED_SYSTEM>
S. pyogenes SKKanGAS, kanamycin survival, BacTiterGlo, 6 h

>  <EC50>
4.27 µM

$$$$
>  <COMPOUND>
CCC(C(=O)NCCCN1CCCC1=O)n1c2ccccc2c2nc(=O)cc(C)n21 (stereo unspecified)

>  <TESTED_SYSTEM>
S. pyogenes SKKanGAS, kanamycin survival, BacTiterGlo, 6 h

>  <EC50>
> 15 µM (inactive)

$$$$
>  <COMPOUND>
O=c1c2ccccc2c(C=Nc2ccc(O)cc2)c(O)n1Cc1ccccc1

>  <TESTED_SYSTEM>
S. pyogenes SKKanGAS, kanamycin survival, BacTiterGlo, 6 h

>  <EC50>
6.21 µM

$$$$
>  <COMPOUND>
CC1=Nc2ccccc2/C1=C\c1nc(-c2ccc(F)cc2)oc1O

>  <TESTED_SYSTEM>
S. pyogenes SKKanGAS, kanamycin survival, BacTiterGlo, 6 h

>  <EC50>
7.57 µM

$$$$
>  <COMPOUND>
CCC1(C)Cc2ccccc2-c2nc(-c3ccccc3)oc(=O)c21 (stereo unspecified)

>  <TESTED_SYSTEM>
S. pyogenes SKKanGAS, kanamycin survival, BacTiterGlo, 6 h

>  <EC50>
5.51 µM

$$$$
>  <COMPOUND>
CCC(=O)Nc1nc2ccccc2n1Cc1ccccc1Cl

>  <TESTED_SYSTEM>
S. pyogenes SKKanGAS, kanamycin survival, BacTiterGlo, 6 h

>  <EC50>
8.22 µM

$$$$
>  <COMPOUND>
CCOC(=O)c1sc(NC(=O)Nc2cccc(Cl)c2)cc1C

>  <TESTED_SYSTEM>
S. pyogenes SKKanGAS, kanamycin survival, BacTiterGlo, 6 h

>  <EC50>
2.39 µM

$$$$
>  <COMPOUND>
CC[C@H]1OC(=O)[C@H](C)[C@@H](O[C@H]2C[C@@](C)(OC)[C@@H](O)[C@H](C)O2)[C@H](C)[C@@H](O[C@@H]2O[C@H](C)C[C@H](N(C)C)[C@H]2O)[C@](C)(OC)C[C@@H](C)C(=O)[C@H](C)[C@@H](O)[C@]1(C)O

>  <TESTED_SYSTEM>
S. pyogenes SKKanGAS, kanamycin survival, BacTiterGlo, 6 h

>  <EC50>
< 0.06 µM

$$$$
>  <COMPOUND>
Cc1ccc(-c2nc3c(Cl)cc(Cl)cc3c(=O)n2O)cc1

>  <TESTED_SYSTEM>
S. pyogenes SKKanGAS, kanamycin survival, BacTiterGlo, 6 h

>  <EC50>
0.808 µM

$$$$
>  <COMPOUND>
CCCc1sc(N/N=C/c2ccccn2)nc1-c1ccc(F)cc1

>  <TESTED_SYSTEM>
S. pyogenes SKKanGAS, kanamycin survival, BacTiterGlo, 6 h

>  <EC50>
9.33 µM

$$$$
>  <COMPOUND>
O=C(CNc1ccccc1)N/N=C/c1c(O)ccc2ccccc12

>  <TESTED_SYSTEM>
S. pyogenes SKKanGAS, kanamycin survival, BacTiterGlo, 6 h

>  <EC50>
0.74 µM

$$$$
>  <COMPOUND>
COc1ccc(-c2c/c(=N\c3nc(-c4ccccc4)c(C)s3)c3ccccc3o2)cc1O

>  <TESTED_SYSTEM>
S. pyogenes SKKanGAS, kanamycin survival, BacTiterGlo, 6 h

>  <EC50>
11 µM

$$$$
>  <COMPOUND>
COc1ccc(-c2cc(-c3ccc(Cl)cc3)n[nH]2)c(O)c1

>  <TESTED_SYSTEM>
S. pyogenes SKKanGAS, kanamycin survival, BacTiterGlo, 6 h

>  <EC50>
8.75 µM

$$$$
